Molecular target: ZFP SBS#1457 (synthetic)
Sequence (chain, as listed by the source): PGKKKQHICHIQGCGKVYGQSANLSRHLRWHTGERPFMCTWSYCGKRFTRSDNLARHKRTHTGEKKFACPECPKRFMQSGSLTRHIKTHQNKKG
Assay: EMSA
Conditions: tags: MBP fusion
pKd: −log10 of the molar value.

- BINDER: "GCAGAGGAA (dsDNA) DNA 1: GCAGAGGAA DNA 2: TTCCTCTGC"
  pKd: 10.85
